Origin of values: patent US12576099B2

Assignment: determine reported Yield per unit template for the given compounds.
assay.system: T7 RNA polymerase (Escherichia phage T7)
Sequence (P00573 whole entry): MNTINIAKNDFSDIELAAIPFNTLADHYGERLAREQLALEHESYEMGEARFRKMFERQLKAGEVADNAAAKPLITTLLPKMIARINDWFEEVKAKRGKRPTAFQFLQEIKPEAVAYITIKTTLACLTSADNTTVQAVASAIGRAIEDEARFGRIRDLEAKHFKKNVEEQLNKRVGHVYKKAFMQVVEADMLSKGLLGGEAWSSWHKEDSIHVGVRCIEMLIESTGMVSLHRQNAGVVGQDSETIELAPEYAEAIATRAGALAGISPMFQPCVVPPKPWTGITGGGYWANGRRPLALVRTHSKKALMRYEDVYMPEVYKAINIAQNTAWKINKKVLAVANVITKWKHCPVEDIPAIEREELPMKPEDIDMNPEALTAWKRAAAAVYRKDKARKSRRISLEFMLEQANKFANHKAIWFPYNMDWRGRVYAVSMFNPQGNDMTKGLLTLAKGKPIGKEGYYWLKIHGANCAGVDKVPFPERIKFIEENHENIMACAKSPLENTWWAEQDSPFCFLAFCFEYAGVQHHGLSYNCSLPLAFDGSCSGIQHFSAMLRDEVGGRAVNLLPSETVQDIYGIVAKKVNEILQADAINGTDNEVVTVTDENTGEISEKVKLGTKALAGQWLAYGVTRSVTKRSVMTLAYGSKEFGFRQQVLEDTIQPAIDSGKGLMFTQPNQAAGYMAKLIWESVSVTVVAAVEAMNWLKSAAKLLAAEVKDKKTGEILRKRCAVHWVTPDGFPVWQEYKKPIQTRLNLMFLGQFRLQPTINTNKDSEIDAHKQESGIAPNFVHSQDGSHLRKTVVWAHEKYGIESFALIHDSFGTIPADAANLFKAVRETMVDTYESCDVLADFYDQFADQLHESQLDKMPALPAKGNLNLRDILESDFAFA
experimental.protocol: In vitro transcription yield of mRNA using cap analogs
Type: biochemical
stated.conditions: in vitro transcription, 1 μg DNA template, 37° C., 2 hours
Give the quantity in µg, number only.

Summary: COC1[C@H](n2cnc3c(N)ncnc32)O[C@H](COP(=O)(O)OP(=O)(O)OP(=O)(O)OC[C@@]23COC([C@H]([n+]4cn(C)c5c(=O)[nH]c(N)nc54)O2)[C@H]3O)[C@H]1OP(=O)(O)OCC1OC(n2cnc3c(=O)[nH]c(N)nc32)C(O)C1O (stereo partly shown) [Compound 14, reference compound] , T7 RNA polymerase (Escherichia phage T7), Yield per unit template = 123.2

Summary: CO[C@@H]1[C@H](OP(=O)(O)OC[C@H]2O[C@@H](n3cnc4c(=O)[nH]c(N)nc43)[C@H](O)[C@@H]2O)[C@@H](COP(=O)(O)OP(=O)(O)OP(=O)(O)OC[C@@]2(OC)O[C@@H]([n+]3cn(C)c4c(=O)[nH]c(N)nc43)[C@H](O)[C@@H]2O)O[C@H]1n1cnc2c(N)ncnc21 [compound 5227, reference compound] , T7 RNA polymerase (Escherichia phage T7), Yield per unit template = 134.2

Summary: CO[C@@H]1[C@H](OP(=O)(O)OC[C@H]2O[C@@H](n3cnc4c(=O)[nH]c(N)nc43)[C@H](O)[C@@H]2O)[C@@H](COP(=O)(O)OP(=O)(O)OP(=O)(O)OC[C@H]2OC([n+]3cn(C)c4c(=O)[nH]c(N)nc43)[C@H](NC(C)=O)[C@@H](O)[C@@H]2O)O[C@H]1n1cnc2c(N)ncnc21 (stereo partly shown) , T7 RNA polymerase (Escherichia phage T7), Yield per unit template = 44.1

Summary: CO[C@@H]1[C@H](OP(=O)(O)OC[C@H]2O[C@@H](n3cnc4c(=O)[nH]c(N)nc43)[C@H](O)[C@@H]2O)[C@@H](COP(=O)(O)OP(=O)(O)OP(=O)(O)OC[C@H]2O[C@@H]([n+]3cn(C)c4c(=O)[nH]c(N)nc43)[C@H](O)[C@@H]2C(C)F)O[C@H]1n1cnc2c(N)ncnc21 (stereo partly shown) , T7 RNA polymerase (Escherichia phage T7), Yield per unit template = 168.1
